Form field: pIC50 (one value per entry).
- System: TNF-α in peripheral blood mononuclear cells (PBMCs)
- test_summary: TNF-α inhibition in LPS-stimulated peripheral blood mononuclear cells
- Format: cell-based
- applied_conditions: PBMC; under similar conditions; read-out: TNF-α IC50 value
- Method: Peripheral blood mononuclear cells (PBMCs) pooled from 10-20 donors were obtained from a local blood bank, ficoll gradient purified, and stored frozen in liquid nitrogen. Cells were thawed and seeded into 96-well plates at 5×10^5 cells/well in RPMI 1640 with 10% heat-inactivated fetal calf serum (MediaTech, Inc, Hearndon, Va., USA), Test articles were evaluated at the indicated concentrations in 150 μL media containing <2% DMSO, final, with stimulant and PBMCs. […]
# pIC50 is unitless: minus log10 of the molar concentration; print number only

compound: CC(C)OCCOc1nc(Oc2ccc3c(c2)COB3O)ccc1C#N
pIC50: 8.44

Consider the additional compound presented here.
Req: Provide pIC50 value for the following compound: CC(=O)CCCOc1nc(Oc2ccc3c(c2)COB3O)ccc1C#N [Compound D141, reference compound]
Resp: 8.92
